The following molecules are listed with their measured Fractional motility values.
Tested on: S. mansoni schistosomulae
Assay: Motility assay on schistosomulae (pixel displacement, relative to DMSO control)
Assay type: cell-based, Schistosoma mansoni
Details: schistosomulae, secondary screen, 24h exposure, read at D1, 10 µM

{"Molecule": "O=C1Cc2cc(CCN3CCN(c4nsc5ccccc45)CC3)c(Cl)cc2N1", "Assay Result": 10.63}

Consider the molecule Cc1c(C(=O)NN2CCCCC2)nn(-c2ccc(Cl)cc2Cl)c1-c1ccc(Cl)cc1 and give its measured Fractional motility.
12.27

Try the molecule CC(C(O)c1ccc(O)cc1)N1CCC(Cc2ccccc2)CC1 (stereo not shown)
0.47

Try the molecule COCCCC/C(=N\OCCN)c1ccc(C(F)(F)F)cc1
10.49

Try the molecule CCOC(=O)CCNc1cc(N2CCc3ccccc3CC2)nc(-c2ccccn2)n1
-0.85

Try the molecule CCCCCCCCCCCCCCCCn1cc[n+](Cc2ccccc2)c1C.[I-]
-0.66

Try the molecule O=C(/C=C/c1ccc2ccccc2n1)c1ccncc1
3.41

---

System: S. mansoni adult worms
Assay: Motility assay on adult parasites (pixel displacement, relative to DMSO control)
Assay type: cell-based, Schistosoma mansoni
Settings: adults, 10 μM, long-term after washout

{"Compound": "c1cc(-c2cnn3cc(-c4ccc(N5CCNCC5)cc4)cnc23)c2cccnc2c1 [LDN-212854]", "System Tested": "S. mansoni adult worms", "motility phenotype in words": "Significant hypomotility"}
{"Compound": "Cc1cc(Nc2ncc(Cl)c(Nc3ccccc3S(=O)(=O)C(C)C)n2)c(OC(C)C)cc1C1CCNCC1 [LDK378]", "System Tested": "S. mansoni adult worms", "motility phenotype in words": "Significant hypomotility"}
{"Compound": "CCCCCCCCCCCCCCCCn1cc[n+](Cc2ccccc2)c1C.[I-] [NH125]", "System Tested": "S. mansoni adult worms", "motility phenotype in words": "Significant hypomotility"}

---

Test system: S. mansoni schistosomulae
Assay: Motility assay on schistosomulae (pixel displacement, relative to DMSO control)
Assay type: cell-based, Schistosoma mansoni
Conditions: schistosomulae, secondary screen, 24h exposure, read at D1, 1 µM
Doc: threshold 1 (exclusive). Items with Fractional motility beneath it return true (1); others return false (0).

These recorded examples may help you get a feel for the data.
{"Substance Smiles": "O=C(Nc1ccccc1-c1cn2c(CN3CCNCC3)csc2n1)c1cnc2ccccc2n1", "Group": "false (0)"}
{"Substance Smiles": "c1cc(-c2cnn3cc(-c4ccc(N5CCNCC5)cc4)cnc23)c2cccnc2c1", "Group": "false (0)"}

Regarding O=[N+]([O-])c1ccc2c(c1)S(=O)(=O)C=C2 , kindly confirm whether its Fractional motility is beneath 1.
true (1)

Try the molecule CCn1c2ccccc2c2cc(Nc3ccnc(NCCCN4CCOCC4)n3)ccc21
false (0)

Try the molecule COc1cc(N2CCC(N)CC2)ccc1Nc1ncc(Cl)c(-c2c[nH]c3ccccc23)n1
true (1)

Try the molecule Cc1cnc(-c2cc(N3CCN(C(=O)CCS(C)(=O)=O)CC3)ncc2Cl)c(C)c1
true (1)

Try the molecule NS(=O)(=O)C#Cc1ccccc1
false (0)

Try the molecule Cc1ccc(S(=O)(=O)c2ccc([N+](=O)[O-])o2)cc1
true (1)

Try the molecule C/C(=N\NC(=S)N1CCC1)c1ccccn1
true (1)

Try the molecule N#CSc1cc(SC#N)c(N)nc1N
false (0)

Try the molecule CCCCCCCCCCCCCCCCn1cc[n+](Cc2ccccc2)c1C.[I-]
false (0)

---

The following molecules are listed with their measured Fractional motility values.
Test system: S. mansoni schistosomulae
Experiment: Motility assay on schistosomulae (pixel displacement, relative to DMSO control)
Type: cell-based, Schistosoma mansoni
Details: schistosomulae, secondary screen, 24h exposure, read at D5, 1 µM
Provide a numeric answer; units are not to be included.

{"Molecule": "CCOC(=O)CCNc1cc(N2CCc3ccccc3CC2)nc(-c2ccccn2)n1 [GSK J4]", "Fractional motility": 0.88}

Request - read-out Fractional motility | tested on S. mansoni schistosomulae | molecule Cc1nc(C#Cc2ccnc(Cl)c2)c(C)n1-c1ccc(OC(F)(F)F)cc1 [CTEP]
0.27

Try the molecule c1cc(-c2cnn3cc(-c4ccc(N5CCNCC5)cc4)cnc23)c2cccnc2c1 [LDN-212854]
-0.46

Try the molecule Cc1ccc(S(=O)(=O)c2ccc([N+](=O)[O-])o2)cc1 [NSC697923]
-0.90

---

Test system: S. mansoni adult worms
Assay: Motility assay on adult parasites (pixel displacement, relative to DMSO control)
Format: cell-based, Schistosoma mansoni
Conditions: secondary screen, 10 μM, D1, Male adult worms
Doc: threshold 2 (exclusive). Items with Fractional motility beneath it return T; others return F.

These recorded examples may help you get a feel for the data.
{"Molecule": "C=CC(=O)Nc1cc(Nc2nccc(-c3cn(C)c4ccccc34)n2)c(OC)cc1N(C)CCN(C)C", "Group": "T"}
{"Molecule": "C/C(=N\\NC(=S)N1CCC1)c1ccccn1", "Group": "T"}
{"Molecule": "COCCCN1CCC(NC(=O)c2cc(Cl)c(N)c3c2OCC3)CC1 [Prucalopride]", "Group": "T"}
{"Molecule": "Cc1ccc(C(=O)N(CCCN)[C@@H](c2nc3cc(Cl)ccc3c(=O)n2Cc2ccccc2)C(C)C)cc1", "Group": "F"}
{"Molecule": "c1ccc(CNc2nc(NCc3ccccc3)c3ccccc3n2)cc1", "Group": "T"}

Regarding O=C(O[C@H]1CN2CCC1CC2)N1CCc2ccccc2[C@@H]1c1ccccc1 , kindly confirm whether its Fractional motility is beneath 2.
F

Try the molecule C[C@@H](NCCCc1cccc(C(F)(F)F)c1)c1cccc2ccccc12
T

Try the molecule C=CC(=O)N1CCC[C@@H](n2nc(-c3ccc(Oc4ccccc4)cc3)c3c(N)ncnc32)C1
F

Try the molecule O=C(Nc1ccccc1-c1cn2c(CN3CCNCC3)csc2n1)c1cnc2ccccc2n1
F

---

Tested on: S. mansoni schistosomulae
Experiment: Phenotypic primary screen assay on schistosomulae (phenotype; viability by methylene blue dye exclusion)
Assay type: cell-based, Schistosoma mansoni
Settings: 24 h incubation, five days
Test Readout: effect on viability of schistosomulae in words

{"Substance Smiles": "CCc1ccc(OCc2ccccc2C(=O)Nc2ccc3nc(C)cc(N)c3c2)cc1", "Assay Result": "lethal"}
{"Substance Smiles": "O=C(Nc1ccccc1-c1cn2c(CN3CCNCC3)csc2n1)c1cnc2ccccc2n1", "Assay Result": "lethal"}

---

Test system: S. mansoni adult worms
Assay: Motility assay on adult parasites (pixel displacement, relative to DMSO control)
Assay type: cell-based, Schistosoma mansoni
Conditions: secondary screen, 10 μM, D5, Male adult worms
# if value of Fractional motility reaches -0.4, tag met; if it stays below, tag not met

{"Compound": "COc1cc(N2CCN(C)CC2)ccc1Nc1nccc(-c2cn(C)c3cnccc23)n1 [AZ191]", "Group": "met"}
{"Compound": "NS(=O)(=O)C#Cc1ccccc1 [Pifithrin-μ]", "Group": "met"}
{"Compound": "CC(C(O)c1ccc(O)cc1)N1CCC(Cc2ccccc2)CC1 (stereo not drawn) [Ifenprodil]", "Group": "not met"}

Confirm if Fractional motility reported for the compound CCCCc1oc2ccccc2c1C(=O)c1cc(I)c(OCCN(CC)CC)c(I)c1 [Amiodarone] is -0.4 or above.
met

Try the compound O=C(C1CCCCC1)N1CC(=O)N2CCc3ccccc3C2C1 (stereo not drawn) [PZQ, praziquantel]
not met

Try the compound C#CC[C@H](c1nc2cc(Cl)ccc2c(=O)n1Nc1ccccc1)N(CCCN)C(=O)c1cccc(Cl)c1F [ARQ 621]
met

Try the compound CNCCC(Oc1ccc(C(F)(F)F)cc1)c1ccccc1 (stereo not drawn) [Fluoxetine]
met

Try the compound C/C(=N\NC(=S)N1CCC1)c1ccccn1 [NSC319726]
met

Try the compound CCc1ccc(OCc2ccccc2C(=O)Nc2ccc3nc(C)cc(N)c3c2)cc1 [JTC-801]
not met

---

Tested on: S. mansoni schistosomulae
Assay: Motility assay on schistosomulae (pixel displacement, relative to DMSO control)
Format: cell-based, Schistosoma mansoni
Conditions: schistosomulae, secondary screen, 24h exposure, read at D1, 1 µM
Test Readout: Fractional motility

A selection of reference data follows.
{"Compound": "COC(=O)C1=CCCN(C)C1", "Fractional motility": -0.93}
{"Compound": "CCc1ccc(OCc2ccccc2C(=O)Nc2ccc3nc(C)cc(N)c3c2)cc1", "Fractional motility": 3.71}
{"Compound": "O=C(NC(NC(=S)Nc1ccc(F)c([N+](=O)[O-])c1)C(Cl)(Cl)Cl)C(c1ccccc1)c1ccccc1 (stereo not drawn)", "Fractional motility": 0.41}

Consider the compound C#CC[C@H](c1nc2cc(Cl)ccc2c(=O)n1Nc1ccccc1)N(CCCN)C(=O)c1cccc(Cl)c1F and give its measured Fractional motility.
2.11

Try the compound Cc1nc(C#Cc2ccnc(Cl)c2)c(C)n1-c1ccc(OC(F)(F)F)cc1
0.25

Try the compound c1ccc(CNc2nc(NCc3ccccc3)c3ccccc3n2)cc1
7.69

Data origin, for the record: paper PMC7284125
